# study.target: KCNQ2 (Rattus norvegicus, UniProt O88943)
# test.details: Whole-cell voltage clamp of CHO cells expressing KCNQ2
# condition.details: KCNQ2 alone; read-out: EC50 of midpoint of activation voltage (V1/2) shift
# Procedure: Cell culture and transient transfection—Chinese Hamster Ovary (CHO) cells were grown in 50/50 DMEM/F12 (Cellgro) with 10% FBS (Gibco), 100 U/ml penicillin (Cellgro), 100 μg/ml streptomycin (Cellgro) and 2 mM L-glutamine (Gibco). […] Electrophysiological Recording—Standard whole-cell recording was used. […] Current and voltage were recorded using an Axopatch-200A amplifier, filtered at 1 kHz and digitized using a DigiData 1322A with pClamp 9.2 software (Axon Instruments, Foster City, Calif.). […]
observable: EC50 (nM)
Numbers only, in nM.

Incoming: Look up EC50 of S=c1ccccn1[O][Zn][O]n1ccccc1=S and report it.
Outgoing: 1500

----------
# study.target: KCNQ2/3 heteromultimers (Rattus norvegicus, UniProt O88943+O88944)
# test.details: Whole-cell voltage clamp of CHO cells expressing KCNQ2/3 heteromultimers
# condition.details: KCNQ2/3 heteromultimers; read-out: EC50 of midpoint of activation voltage (V1/2) shift
# Description: Cell culture and transient transfection—Chinese Hamster Ovary (CHO) cells were grown in 50/50 DMEM/F12 (Cellgro) with 10% FBS (Gibco), 100 U/ml penicillin (Cellgro), 100 μg/ml streptomycin (Cellgro) and 2 mM L-glutamine (Gibco). […] Electrophysiological Recording—Standard whole-cell recording was used. […] Current and voltage were recorded using an Axopatch-200A amplifier, filtered at 1 kHz and digitized using a DigiData 1322A with pClamp 9.2 software (Axon Instruments, Foster City, Calif.). […]
observable: EC50
Remember to follow the number with its unit.

Incoming: Look up EC50 of S=c1ccccn1[O][Zn][O]n1ccccc1=S and report it.
Outgoing: 2400 nM
